- assay: splicing luciferase reporter signal modulators, primary screen, spliceosome inhibition project, cell-based, HEK293, splice +/- reporter (AID 1101);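 also: HEK293 cells carrying a splicing-competent luciferase reporter gene; test concentration not given here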
- condition_set: luminescence, 24 h, higher = more signal, called active from +8 up or from −8 down
endpoint_name: z-score

# molecule, observed_measurement
measured = [
    ("COc1ccc(O[C@H]2C=C[C@@H](c3ccccc3)O[C@@H]2CON=C(C)CCN2CCc3nc(-c4ccccc4)c(-c4ccccc4)cc3C2)cc1", -0.365),
    ("C#CCCCON=C1C[C@@H](O)[C@@H](O)[C@@H]2[C@@H]3C(=O)N(c4cccc(Oc5ccccc5)c4)C(=O)[C@@H]3CC[C@H]12", -0.558),
    ("COC(=O)CC=C[C@@H](C)[C@@H](C=NO[C@@H](C)c1cc(-c2c(C)cc(C)cc2C)no1)NS(=O)(=O)c1ccc(C)cc1", -1.4),
    ("O=c1n(-c2ccccc2)c(=O)n2n1CC[C@@H]1C(=NOCc3ccccc3)[C@H]3O[C@H]3[C@@H](O)[C@@H]12", 0.491),
    ("CC(C)CCN1CCc2nc(COc3ccccc3)c3c(c2C1)CO[C@@H](C)C3", 0.893),
    ("CCOC(=O)[C@H](Cc1ccccc1)NC(=O)OC1CC(CCC2CC(CC)=NO2)OC2(CCCC(COC(=O)NCCC(C)C)O2)C1 (some centres not stated)", 0.667),
    ("COC(=O)CC=C[C@@H](C)[C@@H](C=NO[C@@H](C)c1cn([C@H](CO)Cc2ccccc2)nn1)OC", -0.772),
]

---

- tested_on: Luciferin 4-monooxygenase (Photinus pyralis)
- assay: firefly luciferase enzyme inhibitors, primary screen, biochemical, luminescence, purified enzyme, 2006 set (AID 1141);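 also: cell-free assay with purified firefly luciferase at 100 ng per well in PBS; test concentration not given here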
- condition_set: SteadyGlo luminescence, 30 min, higher = more signal, called active from +8 up or from −8 down
Items are presented alongside their recorded z-score.

# compound, z-score
records = [
    ("CC[C@@H](c1ccccc1)n1c(=O)n2n(c1=O)[C@H]1[C@H](O)[C@@H]3O[C@@H]3C(=NOC[C@@H](O)COCc3ccco3)[C@H]1CC2", -0.47),
    ("CCOC(=O)[C@H](CC(C)C)NC(=O)CCC1CC(OC(=O)NCc2cccc3ccccc23)CC2(CCCC(COC(=O)NCC3CCCCC3)O2)O1 (some centres not stated)", 1),
    ("O=C1OCCC=C1C(O)CCc1ccccc1 (configuration not stated)", 0.151),
    ("CCOC(=O)NN=C1C[C@@H](O)[C@@H](O)[C@@H]2[C@@H]3C(=O)N(c4ccc(F)cc4F)C(=O)[C@@H]3CC[C@@H]12", 1.04),
    ("CCOC(=O)[C@H](Cc1ccccc1)NC(=O)CCC1CC(OC(=O)NCc2ccc3c(c2)OCO3)CC2(CCCC(COC(=O)NCCC(C)C)O2)O1 (some centres not stated)", 0.906),
    ("Cc1cc2c(c(=O)o1)[C@@H](O)[C@H]1O[C@H]1C2=O", 0.476),
    ("CCCNC(=O)OC[C@H]1O[C@H](CCON=Cc2ccc(C(=O)N3[C@H](c4ccc(C)cc4)[C@@H](C)CC[C@H]3C(=O)OC)cc2)C=C[C@@H]1Oc1ccc(OC)cc1", 0.407),
]

---

- Tested on: Noggin (protein binding on small-molecule microarray)
- assay: Noggin binders on small-molecule microarray, primary screen, biochemical, 635/667 nm fluorescence (AID 1095);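 also: score merges 667 nm feature fluorescence with signal to noise over triplicate slides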
- condition_set: 635 nm fluorescence, higher = more signal
endpoint_name: composite z-score

# compound, observed_measurement
measured = [
    ("C[C@H]1CC[C@H]2C(=O)OC(CO)CN2[C@@H]1c1ccc(Br)cc1 (some centres not stated)", 0.0982),
    ("COC(=O)[C@@H]1CC[C@H](C)[C@@H](c2ccc(C)cc2)N1C(=O)c1ccc(C=NOC[C@@H](C)[C@H](OCc2ccccc2)C(C)C)cc1", 0.573),
    ("C#CCCCON=C1C[C@@H](O)[C@@H](O)[C@@H]2[C@@H]3C(=O)N(C(C)(C)C)C(=O)[C@@H]3CC[C@H]12", -0.532),
    ("COC(=O)CC=C[C@@H](C)[C@@H](C=NO[C@@H](C)c1cn([C@H](CO)Cc2ccccc2)nn1)OC", 0.719),
    ("COC(=O)CC=C[C@H](C)[C@@H](OCc1cccc(Br)c1)[C@@H](C)[C@H](OC)C1CCCCC1", 0.32),
    ("O=C1[C@H]2[C@H]3[C@H](O)[C@H](O)CC(=NOCc4ccccc4)[C@@H]3CC[C@H]2C(=O)N1c1ccc(F)cc1F", 0.358),
    ("CCOC(=O)[C@H](CC(C)C)NC(=O)CCC1CC(OC(=O)NCCc2ccc(F)cc2)CC2(CCCC(COC(=O)NCCc3ccc(Cl)cc3)O2)O1 (some centres not stated)", 0.948),
]
